src = the NIST ThermoML archive (doi:10.1016/j.jct.2017.11.017)

Assay: activity coefficient (dimensionless); of the first substance listed, at infinite dilution; xn = mol fraction of the nth substance listed
Details: 358.15 K; 101.33 kPa; Liquid; Chromatography; x1 = 0
Threshold-based label: activity coefficient under 20 gives Y, activity coefficient not under 20 gives N.

INSERT INTO results (compound, label) VALUES
  ('COC(C)(C)C [2-methoxy-2-methylpropane] + C[N+]1(CCCO)CCOCC1.N#C[N-]C#N', 'N'),
  ('C=CCCCCC [1-heptene] + C[n+]1ccn(CCCO)c1.N#CN=C=[N-]', 'N'),
  ('O [water] + C[N+]1(CCCO)CCOCC1.N#C[N-]C#N', 'Y'),
  ('CCCOCCC [dipropyl ether] + C[n+]1ccn(CCCO)c1.N#CN=C=[N-]', 'N'),
  ('c1ccsc1 [thiophene] + C[n+]1ccn(CCCO)c1.N#CN=C=[N-]', 'Y'),
  ('C#CCCCCC [1-heptyne] + C[N+]1(CCCO)CCOCC1.N#C[N-]C#N', 'N'),
  ('CCC(C)O (centres undefined) [butan-2-ol] + C[n+]1ccn(CCCO)c1.N#CN=C=[N-]', 'Y'),
  ('C#CCCCC [1-hexyne] + C[n+]1ccn(CCCO)c1.N#CN=C=[N-]', 'N'),
  ('C=Cc1ccccc1 [styrene] + C[N+]1(CCCO)CCOCC1.N#C[N-]C#N', 'Y'),
  ('O [water] + C[n+]1ccn(CCCO)c1.N#CN=C=[N-]', 'Y'),
  ('Cc1ccc(C)cc1 [1,4-dimethylbenzene] + C[n+]1ccn(CCCO)c1.N#CN=C=[N-]', 'Y'),
  ('CC(C)(C)O [2-methylpropan-2-ol] + C[n+]1ccn(CCCO)c1.N#CN=C=[N-]', 'Y'),
  ('CCCC(C)=O [pentan-2-one] + C[n+]1ccn(CCCO)c1.N#CN=C=[N-]', 'Y'),
  ('Cc1cccc(C)c1 [1,3-dimethylbenzene] + C[n+]1ccn(CCCO)c1.N#CN=C=[N-]', 'Y'),
  ('CCCC=O [butanal] + C[n+]1ccn(CCCO)c1.N#CN=C=[N-]', 'Y'),
  ('C1=CCCCC1 [cyclohexene] + C[n+]1ccn(CCCO)c1.N#CN=C=[N-]', 'N'),
  ('CCCC(C)=O [pentan-2-one] + C[N+]1(CCCO)CCOCC1.N#C[N-]C#N', 'Y'),
  ('Cc1ccccc1 [toluene] + C[N+]1(CCCO)CCOCC1.N#C[N-]C#N', 'Y'),
  ('CCCCCCCCCC [decane] + C[n+]1ccn(CCCO)c1.N#CN=C=[N-]', 'N');
